Below, each of the compounds is paired with its reported Hydrolysis liver value.
- Test protocol: Initial rate of prodrug hydrolysis in human liver S9 (HPLC)
- Type: in vitro ADME
- Run conditions: IVIVE model input, determined experimentally
Write the value in h⁻¹ as a bare number.

Answered cases to consult:
Request the reported Hydrolysis liver associated with CCCCOC(=O)Nc1nc(=O)n([C@@H]2CS[C@H](CO)O2)cc1F [prodrug 12]
0.0125

How about this compound: CCCCOC(=O)Nc1nc(=O)n([C@@H]2CS[C@H](COC(=O)OCCCC)O2)cc1F [prodrug 4]
0.5786

Now consider CCCCCCCCOC(=O)Nc1nc(=O)n([C@@H]2CS[C@H](COC(=O)OCCCCCCCC)O2)cc1F [prodrug 8] and answer again.
0.0694

Further cases:
Consider the compound CCCCCCCCOC(=O)Nc1nc(=O)n([C@@H]2CS[C@H](CO)O2)cc1F [prodrug 16] and give its measured Hydrolysis liver.
0.0282
